Test system: Huh7 cells expressing a subgenomic RNA replicon of Con1 (genotype 1b) sequence origin
protocol_summary: microbe, parasite or virus in culture
settings: Hepatitis C virus, Huh-7
Lab note - cut at 0.5 µM for IC50: Condition met if strictly below, Condition not met if not.

QUERY: Confirm or reject: IC50 of CC(C)(C)C(=O)OCOP(=O)(COCCn1cnc2c(N)ncnc21)OCOC(=O)C(C)(C)C [Adefovir (e.g., dipivoxil), adefovir dipivoxil, reference compound] lies strictly below 0.5 µM
RESULT: Condition met

QUERY: Dear colleague, could you confirm whether IC50 of O=CN/C=C/c1cc(O)ccc1O [Erbstatin, reference compound] falls below 0.5 µM? Thanks.
RESULT: Condition not met
